- testTarget: human EGFR (huEGFR) over-expressed on mcl-1-/- mouse embryonic fibroblasts (human, UniProt P00533 25-1210)
- assayText: cell-based or functional assay
Recorded measurements of huEGFR+ mcl-1-/- MEF EC50, one per entry
reportedEndpoint: huEGFR+ mcl-1-/- MEF EC50 (nM)

1) AbK-WD (antibody, human IgG1, kappa, V domains shown, synthon WD on reduced interchain cysteines; average DAR 1.7 per ADC) VH: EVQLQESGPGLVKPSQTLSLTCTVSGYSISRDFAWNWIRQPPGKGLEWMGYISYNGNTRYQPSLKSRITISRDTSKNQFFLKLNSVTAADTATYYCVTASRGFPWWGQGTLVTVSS VL: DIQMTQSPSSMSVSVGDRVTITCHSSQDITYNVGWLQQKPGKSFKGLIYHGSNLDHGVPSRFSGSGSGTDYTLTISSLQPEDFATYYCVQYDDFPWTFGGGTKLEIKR	35
2) AbB-XW (antibody, human IgG1, kappa, V domains shown, synthon XW on reduced interchain cysteines; average DAR 3.2 per ADC) VH: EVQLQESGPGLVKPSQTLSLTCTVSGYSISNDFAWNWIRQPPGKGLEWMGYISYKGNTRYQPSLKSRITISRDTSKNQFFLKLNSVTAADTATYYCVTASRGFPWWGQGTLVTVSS VL: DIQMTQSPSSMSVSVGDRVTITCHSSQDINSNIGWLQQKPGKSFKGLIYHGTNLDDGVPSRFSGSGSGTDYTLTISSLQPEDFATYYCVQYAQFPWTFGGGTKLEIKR	0.65
3) AbG-ZT (antibody, human IgG1, kappa, V domains shown, synthon ZT on reduced interchain cysteines; average DAR 1.6 per ADC) VH: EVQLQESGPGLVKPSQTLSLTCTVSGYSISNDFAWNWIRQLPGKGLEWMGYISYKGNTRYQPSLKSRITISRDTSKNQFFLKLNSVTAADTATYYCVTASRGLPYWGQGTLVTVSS VL: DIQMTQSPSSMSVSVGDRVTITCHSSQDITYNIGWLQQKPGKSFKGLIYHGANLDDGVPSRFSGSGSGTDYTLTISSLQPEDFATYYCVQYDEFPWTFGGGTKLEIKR	33
4) AbG-TX (antibody, human IgG1, kappa, V domains shown, synthon TX on reduced interchain cysteines; average DAR 3.3 per ADC) VH: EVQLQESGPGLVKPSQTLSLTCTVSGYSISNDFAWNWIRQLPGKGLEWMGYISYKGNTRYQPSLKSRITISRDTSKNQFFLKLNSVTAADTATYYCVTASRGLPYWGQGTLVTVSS VL: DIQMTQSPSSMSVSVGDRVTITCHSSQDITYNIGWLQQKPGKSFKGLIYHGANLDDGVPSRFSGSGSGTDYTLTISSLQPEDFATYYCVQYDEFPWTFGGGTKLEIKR	5.3
5) AbG-WD (antibody, human IgG1, kappa, V domains shown, synthon WD on reduced interchain cysteines; average DAR 3.4 per ADC) VH: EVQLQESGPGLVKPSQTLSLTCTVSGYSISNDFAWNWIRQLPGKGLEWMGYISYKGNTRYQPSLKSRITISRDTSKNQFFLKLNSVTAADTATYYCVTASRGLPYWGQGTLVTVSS VL: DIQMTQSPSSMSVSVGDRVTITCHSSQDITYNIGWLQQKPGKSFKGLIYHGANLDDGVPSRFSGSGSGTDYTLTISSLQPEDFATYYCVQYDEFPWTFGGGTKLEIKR	5.8
